- assay_info: Compound cytotoxicity, XTT-based colorimetric assay
- Type: cell-based
- conditions_used: human, uninfected MT2 cells, Table 1, day 4, XTT
- Experimental: Compound cytotoxicity and the corresponding CC50 values were determined using the same protocol as described in the antiviral assay except that uninfected cells were used. Cytotoxicity was assessed on day 4 in uninfected MT2 cells by using a XTT (2,3-bis[2-Methoxy-4-nitro-5-sulfophenyl]-2H-tetrazolium-5-carboxyanilide inner salt)-based colorimetric assay (Sigma-Aldrich, St Louis, Mo.). Biological data for select compounds of the invention are contained in Table 1 and Table 1a
Task for the reader: assign each of the following compounds its reported CC50 at 4 days.

Recorded results for 2 compounds are shown here.
compound	CC50 at 4 days
Cn1nc(NS(C)(=O)=O)c2c(Cl)ccc(-n3c([C@H](Cc4cc(F)cc(F)c4)NC(=O)Cn4nc(C(F)F)c5c4C(F)(F)[C@@H]4C[C@H]54)nc4ncccc4c3=O)c21 (single isomer, unassigned)	> 10 µM
NC(=O)c1cc(-c2cc3[nH]ncc3nc2[C@H](Cc2cc(F)cc(F)c2)NC(=O)Cn2nc(C(F)F)c3c2C(F)(F)[C@@H]2C[C@H]32)ccc1Cl	> 10 µM

Please turn your attention to the following entry.
Problem: Suppose we examine the compound COc1ccc2c(=O)n(-c3ccc(Cl)c4c(NS(C)(=O)=O)nn(C)c34)c([C@H](Cc3cc(F)cc(F)c3)NC(=O)Cn3nc(C(F)F)c4c3C(F)(F)[C@@H]3C[C@H]43)nc2c1 (single isomer, unassigned) ; what CC50 at 4 days value has been reported?
Result: > 10 µM
